tested on: Plasmodium berghei; test: Screen against P. berghei liver stage (PbLuc), transformed with Luciferase, at 10uM; format: functional, HepG2; conditions: tested at 10 uM
Out of some 69,000 compounds screened, about 8,600 (12%) showed an effect of 50% or more. The list comes from a sample in which strong results are over-represented; it also holds close analogues and randomly drawn compounds.
Overview of recorded INHIBITION for various compounds

COMPOUND	INHIBITION
COc1ccc(C2SCC(=O)Nc3ccsc32)cc1 (configuration not stated)	67.9%
CN(C)C(=O)N1CCC2(CC1)CN(CC1CC1)CC21CCNC1=O (configuration not stated)	-63.9%
COc1cc(C2SCC(=O)Nc3ccsc32)cc(OC)c1OC (configuration not stated)	29.4%
O=C1CSC(c2ccsc2)c2sccc2N1 (configuration not stated)	20.5%
COc1cc(C2SCC(=O)Nc3ccsc32)cc(OC)c1O (configuration not stated)	43.7%
Cc1ccc(CN2CCc3ncnc(C4CC4)c3CC2)s1	34.8%
Cc1ccccc1C(C(=O)NCCSC(F)(F)F)N(C)C (configuration not stated)	-33.8%
O=C1CSC(c2ccc(O)cc2)c2sccc2N1 (configuration not stated)	88.1%
COCCC(=O)N1CC[C@@H](N2CCOCC2)[C@@H]1Cc1ccccc1	38.1%
COc1ccc(C2SCC(=O)Nc3ccsc32)cc1OC (configuration not stated)	3.68%
CCc1nc(CN2CCCC(NCc3nc4ccccc4o3)C2)no1 (configuration not stated)	-21.7%
CC1CS(=O)(=O)CCN1CCCc1ccc(C(F)(F)F)cc1 (configuration not stated)	10.1%
